System tested: Neurolysin (Nln) (Rattus norvegicus, UniProt P42676)
Construct: polyhistidine (N); made in house; host or cells: Escherichia coli (pBAD/His vector), if the rat enzyme of b61 was used
Sequence (P42676 38-704): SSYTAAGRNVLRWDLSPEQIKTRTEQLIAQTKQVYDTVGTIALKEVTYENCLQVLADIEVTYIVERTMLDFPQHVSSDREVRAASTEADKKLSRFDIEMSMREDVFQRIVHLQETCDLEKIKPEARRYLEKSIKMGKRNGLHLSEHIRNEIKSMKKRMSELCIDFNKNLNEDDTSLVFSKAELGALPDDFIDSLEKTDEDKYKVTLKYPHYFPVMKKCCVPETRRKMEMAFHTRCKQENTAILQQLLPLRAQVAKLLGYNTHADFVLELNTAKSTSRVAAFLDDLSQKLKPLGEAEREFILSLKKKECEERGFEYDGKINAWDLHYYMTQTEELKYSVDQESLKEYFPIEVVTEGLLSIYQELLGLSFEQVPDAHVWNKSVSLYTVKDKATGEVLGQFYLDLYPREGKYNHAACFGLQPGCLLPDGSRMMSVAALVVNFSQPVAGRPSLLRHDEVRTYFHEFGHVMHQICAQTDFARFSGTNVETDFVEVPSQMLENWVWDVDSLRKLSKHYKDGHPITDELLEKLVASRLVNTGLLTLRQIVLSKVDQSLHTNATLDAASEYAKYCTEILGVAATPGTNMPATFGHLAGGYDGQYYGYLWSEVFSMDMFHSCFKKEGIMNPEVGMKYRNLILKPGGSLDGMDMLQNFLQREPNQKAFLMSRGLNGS
Assay notes: Nln activation in isolated enzyme assay (A50, Amax)
Format: biochemical
Condition notes: 100% = normal enzyme turnover; 95% CI in parentheses
Assay endpoint: Amax (maximum % activation achieved)

[[record]]
molecule = "N[C@@H](Cc1c[nH]cn1)C(=O)NCCCc1ccccc1 [Compound 7a]"
data_value = "288.1 (273.6 to 303.8) %"

[[record]]
molecule = "N[C@H](Cc1c[nH]cn1)C(=O)NCc1cccc2ccccc12 [Compound 10d]"
data_value = "343 (325.2 to 363.5) %"

[[record]]
molecule = "N[C@@H](Cc1c[nH]cn1)C(=O)NCCc1ccccc1 [Compound 4c]"
data_value = "337.2 (302-378.6) %"

[[record]]
molecule = "COc1ccc(CCNC(=O)[C@@H](N)Cc2c[nH]cn2)cc1 [Compound 4e]"
data_value = "339.4 (314.2 to 369.3) %"

[[record]]
molecule = "N[C@@H](Cc1c[nH]cn1)C(=O)NCCCCc1ccccc1 [Compound 8a]"
data_value = "328 (309-351) %"

[[record]]
molecule = "O=C(CCc1cnc[nH]1)NCCc1c[nH]c2ccccc12 [PT-1-177]"
data_value = "Inactive"

[[record]]
molecule = "N[C@@H](Cc1c[nH]cn1)C(=O)N1CCCC1 [SR-5-3d]"
data_value = "173 (158.5 to 194.1) %"

[[record]]
molecule = "N[C@H](Cc1c[nH]cn1)C(=O)NCc1cccc2ccccc12 [SR-10-1d]"
data_value = "343 (325.2 to 363.5) %"

[[record]]
molecule = "N[C@H](Cc1c[nH]cn1)C(=O)NCCCc1ccccc1 [Compound 7b]"
data_value = "281.8 (269.9-294.5) %"

[[record]]
molecule = "N[C@@H](Cc1ccccn1)C(=O)NCCc1ccccc1 [AB-1-3-2]"
data_value = "Inactive"

[[record]]
molecule = "N[C@H](Cc1c[nH]cn1)C(=O)NCCCCc1ccccc1 [Compound 8b]"
data_value = "233.8 (215.9 to 254.8) %"

[[record]]
molecule = "O=C1NC(Cc2c[nH]cn2)C(=O)N2CCCC12 (centres unmarked) [Cyclo(His-Pro)]"
data_value = "Inactive"

[[record]]
molecule = "N[C@H](Cc1c[nH]cn1)C(=O)NCc1ccc2ccccc2c1 [Compound 10b]"
data_value = "197.5 (184.9 to 214.8) %"

[[record]]
molecule = "N[C@@H](Cc1c[nH]cn1)C(=O)Nc1cccc2cccnc12 [Compound 11a]"
data_value = "252.4 (231.4 to 274.9) %"

[[record]]
molecule = "N[C@@H](Cc1c[nH]cn1)C(=O)NCCc1c[nH]c2ccccc12 [Compound 9d]"
data_value = "259 (240.7 to 281) %"

[[record]]
molecule = "CC(C)(C)OC(=O)N[C@@H](Cc1c[nH]cn1)C(=O)NCCc1ccccc1"
data_value = "Inactive"

[[record]]
molecule = "N[C@H](Cc1c[nH]cn1)C(=O)Nc1ccccc1 [Compound 6b]"
data_value = "440.3 (414.9 to 470.4) %"

[[record]]
molecule = "COc1ccc(CCNC(=O)[C@H](N)Cc2c[nH]cn2)cc1 [Compound 4f]"
data_value = "378.3 (350.5 to 411.9) %"

[[record]]
molecule = "N[C@H](Cc1c[nH]cn1)C(=O)Nc1cccc2cccnc12 [Compound 11b]"
data_value = "255.2 (239.9 to 278.9) %"

[[record]]
molecule = "N[C@@H](Cc1c[nH]cn1)C(=O)N[C@@H](Cc1ccccc1)C(=O)O (stereo in doubt) [Compound 3, His-Phe]"
data_value = "573 (547.9 to 602.7) %"


* * *

Assay notes: Plasma and brain protein binding, rapid equilibrium dialysis (RED)
Assay type: in vitro ADME, mouse
Condition notes: mouse brain homogenate, read-out: fu in Brain
Assay endpoint: fraction unbound at 4 h, 500 ng/mL

[[record]]
molecule = "N[C@@H](Cc1c[nH]cn1)C(=O)NCc1cccc2ccccc12 [Compound 10c]"
assay_endpoint = "fraction unbound at 4 h, 500 ng/mL"
data_value = 0.052


* * *

System tested: Neurolysin (Nln) (Rattus norvegicus)
Construct: polyhistidine (N); made in house; host or cells: Escherichia coli (pBAD/His vector), if the rat enzyme of b61 was used
Assay notes: Nln activation in isolated enzyme assay (A50, Amax)
Assay type: biochemical
Assay endpoint: Amax (maximum % activation achieved)

[[record]]
compound = "N[C@H](Cc1c[nH]cn1)C(=O)NCCc1ccc(C(F)(F)F)cc1 [Compound 4l]"
data_value = "330.1 (313.9 to 347.7) %"

[[record]]
compound = "N[C@@H](Cc1c[nH]cn1)C(=O)NCc1ccc(F)cc1 [DF-6-2A]"
data_value = "252 (235.6 to 270.5) %"

[[record]]
compound = "N[C@H](Cc1c[nH]cn1)C(=O)NCCc1ccc([N+](=O)[O-])cc1"
data_value = "267.5 (250.1 to 287.1) %"

[[record]]
compound = "COc1ccccc1CNC(=O)[C@@H](N)Cc1c[nH]cn1"
data_value = "385.8 (363.8 to 410.5) %"


* * *

System tested: rat recombinant neurolysin (Rattus norvegicus, UniProt P42676)
Construct: polyhistidine (N); made in house; host or cells: Escherichia coli (pBAD/His vector)
Sequence (P42676 38-704): as above
Assay notes: Enzymatic assay: QFS hydrolysis by rat recombinant neurolysin
Assay type: biochemical
Condition notes: 100 μM compound; QFS 25 μM; compared to vehicle control
Method: Rat recombinant neurolysin—N-terminal polyhistidine tagged recombinant rat neurolysin was produced in Escherichia coli using a plasmid construct in pBAD/His vector system (Invitrogen) kindly provided by Dr. David W. Rodgers (University of Kentucky) (32,33). Bacterial culture was carried out in Terrific Broth in 2 L Erlenmeyer flasks using an incubator shaker (1-2400, New Brunswick Scientific). […] Specific activity of recombinant neurolysin was determined by an enzymatic assay described below. […]
Square brackets hold non-standard residues; d marks the D form. Peptide text beside a SMILES is read from it. Tyr(3-NO2) = N[CH](Cc1ccc(O)c([N+](=O)[O-])c1)C(=O)O
Assay endpoint: % activity at (100) (%)

[[record]]
molecule = "O=P1(NCC2CCCO2)OCC2(CO1)COP(=O)(NCC1CCCO1)OC2 (centres unmarked) [Compound 88659]"
data_value = 100

[[record]]
molecule = "CC1(C)SC(C(NC(=O)Cc2ccccc2)C(=O)O)NC1C(=O)O (centres unmarked) [Compound 163084]"
data_value = 102

[[record]]
molecule = "CN1CCC(O)(c2ccccc2)C(CCC(=O)N2CCCC2)C1.Cl (centres unmarked) [Compound 15180]"
data_value = 95

[[record]]
molecule = "CC(C)CC(NC(=O)C(C)N)C(=O)NCC(=O)O (centres unmarked) [Compound 333568]"
data_value = 77

[[record]]
molecule = "COC1OC2COC(c3ccccc3)OC2C(N=Cc2ccccc2)C1O (centres unmarked) [Compound 210826]"
data_value = 105

[[record]]
molecule = "N#CC(C#N)N=Nc1ccc(S(=O)(=O)N=C(N)N)cc1 [Compound 134119]"
data_value = 41

[[record]]
molecule = "O=C(O)C1C2C=CC(O2)C1C(=O)NCCCN1CCOCC1 (centres unmarked) [Compound 47096]"
data_value = 111

[[record]]
molecule = "CC(C)CC(NC(=O)C(N)CC(=O)O)C(=O)O (stereo not drawn) [Compound 332636] (H-Asp-Leu-OH; configuration not given here)"
data_value = 64

[[record]]
molecule = "CCCCCCN(C)C12CN3CN(CN(C3)C1)C2 [Compound 281707]"
data_value = 113

[[record]]
molecule = "COC(=O)CCN1CCN(CCO)CC1C (centres unmarked) [Compound 659264]"
data_value = 107

[[record]]
molecule = "CC(C)C(N)C(=O)NC(C(=O)NS(=O)(=O)c1ccc(N)cc1)C(C)C (centres unmarked) [Compound 340049]"
data_value = 52

[[record]]
molecule = "Cl.NC(=O)C(Cc1ccc(O)cc1)NC(=O)C(N)Cc1c[nH]c2ccccc12 (stereo not drawn) [Compound 339919] (H-Trp-Tyr-NH2; configuration not given here)"
data_value = 63

[[record]]
molecule = "O=C(O)CNC(=O)CNC(=O)c1ccc2ccccc2n1 [Compound 400844]"
data_value = 84

[[record]]
molecule = "COCN1CCC2N(COC)CCC3N(COC)CCC1N23 (centres unmarked) [Compound 82001]"
data_value = 100

[[record]]
molecule = "CC(NCCN1CCCC1)C(O)c1ccc(O)c(O)c1.Cl (centres unmarked) [Compound 48778]"
data_value = 84

[[record]]
molecule = "COc1ccc2c(c1)c(=O)c(C(=O)O)cn2CCCOc1ccc([N+](=O)[O-])cc1 [Compound 211002]"
data_value = 100

[[record]]
molecule = "CC(NCCN(C)C)C1CC2CCCCN2C1 (centres unmarked) [Compound 600947]"
data_value = 105

[[record]]
molecule = "CN(CCc1cnc2nc(N)[nH]c(=O)c2n1)c1ccc(C(=O)O)cc1 [Compound 121184]"
data_value = 18

[[record]]
molecule = "O=C1CSC(c2cccnc2)N1CCN1C(=O)CSC1c1cccnc1 (centres unmarked) [Compound 615399]"
data_value = 108

[[record]]
molecule = "Cl.NC(=O)C(Cc1ccc(O)c([N+](=O)[O-])c1)NC(=O)C(N)Cc1ccccc1 (centres unmarked) [Compound 343028] (H-Phe-[Tyr(3-NO2)]-NH2; configuration not given here)"
data_value = 73

[[record]]
molecule = "NCC(=O)N1CCC[C@H]1C(=O)NCC(=O)NCC(=O)O [Compound 89624] (H-GPGG-OH)"
data_value = 38

[[record]]
molecule = "CC1CN(CCCN)C(C)CN1CCCN (centres unmarked) [Compound 14541]"
data_value = 103

[[record]]
molecule = "Clc1cc(Cl)c(C[N+]23CN4CN(CN(C4)C2)C3)cc1Cl.[Cl-] [Compound 155877]"
data_value = 4


Data credit: patent US20210198647A1
